- Tested on: Wild type
- procedure_details: S. aureus survival, RN4220 and DeltatarO strains – OD600, teichoic acid synthesis inhibitors, primary screen (AID 463173)
- condition_notes: S. aureus RN4220 wild type/DeltatarO growth, OD600, 18 h, active compounds read low, screened at 18.75 µg/mL (by protocol)
Among all 52,000 compounds or so, about 1,700 (3.3%) were called active. This excerpt belongs to a sample that is enriched for actives.
quantity_kind: survival

Per the records, this molecule ( CCc1ccc(N2CCn3c2nc2c3c(=O)n(C/C=C/c3ccccc3)c(=O)n2C)cc1 ) has survival equal to 79% (inactive)

Per the records, this molecule ( CC(C)c1ccc(NC(=O)CSC2=Nc3ccccc3C3=NC(CC(=O)NCc4ccc(F)cc4)C(=O)N23)cc1 (stereo unspecified) ) has survival equal to 73% (inactive)

Per the records, this molecule ( CCc1ccc(NC(=O)Cn2c(=O)n(CCC(=O)NCCc3ccc(OC)c(OC)c3)c(=O)c3ccccc32)cc1 ) has survival equal to 102% (inactive)

Per the records, this molecule ( COc1ccc2oc(=O)c(C(=O)Nc3cccc(C(=O)O)c3)cc2c1 ) has survival equal to 68% (inactive)

Per the records, this molecule ( CC(C)(C)c1ccc(-c2nnc(-c3ccccc3NC(=O)c3ccc(F)cc3F)o2)cc1 ) has survival equal to 144% (inactive)

Per the records, this molecule ( Cc1cccc(Nc2sc(C(=O)c3ccc(Cl)cc3)c(N)c2C(N)=O)c1 ) has survival equal to 45% (inactive)
